The values you see were collected from patent US20140094465A1.

Below is a list of entries, each paired with its recorded IC50 value.
# TESTED_ON: S-nitrosoglutathione reductase (GSNOR) (Homo sapiens)
# Construct: made in house; host or cells: E. coli
# PROTOCOL_NOTES: GSNOR assay (inhibition of GSNOR activity, NADH absorbance at 340 nm)
# Type: biochemical
# CONDITION_SET: GSNOR inhibitor activity, Tables 1-6; read-out: IC50 range

Past entries and their recorded results:
[[record]]
compound = "O=C(O)c1ccc(NC(=O)c2ccc(O)cc2C(F)(F)F)cc1"
tested_on = "S-nitrosoglutathione reductase (GSNOR) (Homo sapiens)"
readout_label = "IC50"
readout_value = "0.1 to 1 µM"

[[record]]
compound = "Cc1cc(C(=O)O)ccc1-c1c(C(F)(F)F)oc2cc(O)ccc2c1=O"
tested_on = "S-nitrosoglutathione reductase (GSNOR) (Homo sapiens)"
readout_label = "IC50"
readout_value = "< 0.1 µM"

[[record]]
compound = "O=C(O)c1ccc(-c2ccc3cc(O)ccc3c2)cn1"
tested_on = "S-nitrosoglutathione reductase (GSNOR) (Homo sapiens)"
readout_label = "IC50"
readout_value = "1 to 10 µM"

[[record]]
compound = "O=C(O)c1ccc(-c2ccc3cc(O)ccc3c2)c(F)c1"
tested_on = "S-nitrosoglutathione reductase (GSNOR) (Homo sapiens)"
readout_label = "IC50"
readout_value = "< 0.1 µM"

[[record]]
compound = "O=C(O)c1ccc(NCc2ccc(O)c(F)c2F)c(F)c1"
tested_on = "S-nitrosoglutathione reductase (GSNOR) (Homo sapiens)"
readout_label = "IC50"
readout_value = "0.1 to 1 µM"

[[record]]
compound = "O=C(O)c1ccc(-c2ccc3cc(O)cc(F)c3n2)cc1"
tested_on = "S-nitrosoglutathione reductase (GSNOR) (Homo sapiens)"
readout_label = "IC50"
readout_value = "< 0.1 µM"

[[record]]
compound = "O=C(O)c1ccc(-c2cc(F)c3cc(O)ccc3c2)cc1"
tested_on = "S-nitrosoglutathione reductase (GSNOR) (Homo sapiens)"
readout_label = "IC50"
readout_value = "< 0.1 µM"

[[record]]
compound = "O=C(O)c1ccc(-c2ccc3cc(O)ccc3c2)nc1"
tested_on = "S-nitrosoglutathione reductase (GSNOR) (Homo sapiens)"
readout_label = "IC50"
readout_value = "0.1 to 1 µM"


Now for the compound whose IC50 we want.
Quote IC50 reported for `O=C(O)c1ccc(CC(=O)c2ccc(O)c(F)c2O)c(F)c1` please. 0.1 to 1 µM

###

The entries below are paired with their reported IC50.
# TESTED_ON: S-nitrosoglutathione reductase (GSNOR) (Homo sapiens, UniProt P11766)
# Construct: made in house; host or cells: E. coli
# Sequence (P11766 whole entry): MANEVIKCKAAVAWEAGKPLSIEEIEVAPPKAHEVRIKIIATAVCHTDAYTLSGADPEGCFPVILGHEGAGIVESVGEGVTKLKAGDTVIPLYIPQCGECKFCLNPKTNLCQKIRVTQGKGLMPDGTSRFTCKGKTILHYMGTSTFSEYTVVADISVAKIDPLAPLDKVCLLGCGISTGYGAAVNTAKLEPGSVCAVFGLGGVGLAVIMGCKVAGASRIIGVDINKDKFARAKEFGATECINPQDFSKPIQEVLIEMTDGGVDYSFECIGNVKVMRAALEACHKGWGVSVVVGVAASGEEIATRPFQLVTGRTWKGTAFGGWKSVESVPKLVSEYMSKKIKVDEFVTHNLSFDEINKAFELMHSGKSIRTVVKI
# PROTOCOL_NOTES: GSNOR assay (inhibition of GSNOR activity, NADH absorbance at 340 nm)
# Format: biochemical
# CONDITION_SET: GSNOR inhibitor activity, Tables 1-6; read-out: IC50 range

Field: example entries. Status: answers known.
[[record]]
molecule = "O=C(O)c1ccc(NC(=O)c2ccc(O)cc2O)cc1 [VI-16, 4-(2,4-dihydroxybenzamido)benzoic acid]"
readout_label = "IC50"
readout_value = "1000 to 10000 nM"

[[record]]
molecule = "O=C(O)c1ccc(-c2ccc3cc(O)ccc3n2)c(C(F)(F)F)c1"
readout_label = "IC50"
readout_value = "< 100 nM"


Report IC50 for `O=c1c(-c2ccc(-c3nnn[nH]3)cc2)c(C(F)(F)F)oc2cc(O)ccc12` < 100 nM

Output IC50 of `O=C(O)c1ccc(Oc2c(-c3ccc(O)cc3)oc3cc(O)ccc3c2=O)cc1` 1000 to 10000 nM
